Source: ChEMBL document CHEMBL4257564

procedure.summary: Protein binding in rat plasma at 1 uM after 6 hrs by equilibrium dialysis
Type: ADME, cell-free
setup.conditions: read-out: PPB
reported.metric: fraction unbound at 6 h, 1 µM

>>> df
                           smiles_structure  measured_result
0  Cc1cc(-c2ccc3c(c2)CC[C@H]3N2CCC(N(C)C(=O)N[C@@H](C)c3ccc(C#CC4CC4)c(Cl)c3Cl)CC2)ncn1           0.0001

----------
procedure.summary: Tmax in rat at 3 mg/kg, po via gavage by LC-MS/MS analysis
Assay type: ADME, organism-based
setup.conditions: in vivo
reported.metric: Tmax (h)

In [3]: df
Out[3]:
                           smiles_structure  unit  measured_result
0  Cc1cc(-c2ccc3c(c2)CC[C@H]3N2CCC(N(C)C(=O)N[C@@H](C)c3ccc(C#CC4CC4)c(Cl)c3Cl)CC2)ncn1     h              6.7

----------
procedure.summary: Clearance in rat liver microsomes at 0.625 uM preincubated for 5 mins followed by NADPH addition and measured after 60 mins by LC-MS/MS analysis
Assay type: ADME, microsome
setup.conditions: read-out: CLH
microsomal CLint at 0.625 µM vs 70 µL/min/mg: less than gives 1 (yes); not less than gives 0 (no).

In [3]: df
Out[3]:
                                   compound  class_name
0  Cc1cc(-c2ccc3c(c2)CCC3N2CCC(N(C)C(=O)N[C@@H](C)c3ccc(C#CC4CC4)c(Cl)c3Cl)CC2)ncn1 (stereo partly specified)     1 (yes)
1  Cc1cc(-c2ccc3c(c2)CC[C@H]3N2CCC(N(C)C(=O)N[C@@H](C)c3ccc(C#CC4CC4)c(Cl)c3Cl)CC2)ncn1     1 (yes)
2  C#Cc1ccc([C@H](C)NC(=O)N(C)C2CCN(C3CCc4cc(-c5cc(C)ncn5)ccc43)CC2)c(Cl)c1Cl (stereo partly specified)     1 (yes)
3  COc1ccc([C@H](C)NC(=O)N(C)C2CCN(C3CCc4cc(C)ccc43)CC2)c(Cl)c1Cl (stereo partly specified)      0 (no)
4  COc1ccc([C@H](C)NC(=O)N(C)C2CCN(C3CCc4cc(Cl)ccc43)CC2)c(Cl)c1Cl (stereo partly specified)      0 (no)

----------
target.under.test: Growth hormone secretagogue receptor type 1 (Homo sapiens, UniProt Q92847)
Sequence (Q92847 whole entry): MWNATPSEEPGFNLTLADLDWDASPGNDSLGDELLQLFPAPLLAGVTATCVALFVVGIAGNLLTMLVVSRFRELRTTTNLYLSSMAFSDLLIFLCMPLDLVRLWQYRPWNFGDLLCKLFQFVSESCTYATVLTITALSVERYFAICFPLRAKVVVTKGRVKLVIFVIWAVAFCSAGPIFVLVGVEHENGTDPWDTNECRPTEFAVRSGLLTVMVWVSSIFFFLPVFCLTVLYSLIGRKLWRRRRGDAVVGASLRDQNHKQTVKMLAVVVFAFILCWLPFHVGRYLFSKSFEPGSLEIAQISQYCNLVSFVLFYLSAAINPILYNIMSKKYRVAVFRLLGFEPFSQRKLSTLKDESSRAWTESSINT
procedure.summary: Antagonist activity at recombinant human GHSR1a expressed in HEK293 cells assessed as inhibition of ghrelin-induced intracellular calcium release incubated for 20 secs and measured after 2 mins by FLIPR assay
pIC50: −log10 of the molar value.
reported.metric: pIC50

>>> df
                                   compound  measured_result
0  Cc1cc(-c2ccc3c(c2)CC[C@H]3N2CC3(CCN(C(=O)N[C@@H](C)c4cccc(Cl)c4Cl)CC3)C2)ncn1             5.40
1  COc1ccc([C@H](CC2CC2)NC(=O)N(C)C2CCN(C3CCc4cc(-c5cc(C)ncn5)ccc43)CC2)c(Cl)c1Cl (stereo partly drawn)             5.74
2  COc1ccc([C@H](C)NC(=O)N(C)C2CCN(C3CCc4cc(-c5cc(C)ncn5)ccc43)CC2)c(Cl)c1Cl (stereo partly drawn)             6.77
3  Cc1cc(-c2ccc3c(c2)CCC3N2CCC(N(C)C(=O)NCc3ccc(C#CC4CC4)c(Cl)c3Cl)CC2)ncn1 (stereo not drawn)             5.95
4  Cc1cc(-c2ccc3c(c2)CCC3N2CCC(N(C)C(=O)N[C@@H](CC3CC3)c3cccc(Cl)c3Cl)CC2)ncn1 (stereo partly drawn)             5.27
5  Cc1cc(-c2ccc3c(c2)CCC3N2CCC(N(C)C(=O)N[C@@H](C)c3ccc(N)c(Cl)c3Cl)CC2)ncn1 (stereo partly drawn)             6.24
6  C[C@H](NC(=O)N(C)C1CCN(C2CCc3ccccc32)CC1)c1ccc(C#CC2CC2)c(Cl)c1Cl (stereo partly drawn)             6.04
7  C#Cc1ccc([C@H](C)NC(=O)N(C)C2CCN(C3CCc4cc(-c5cc(C)ncn5)ccc43)CC2)c(Cl)c1Cl (stereo partly drawn)             6.81

----------
procedure.summary: Clearance in mouse liver microsomes at 0.625 uM preincubated for 5 mins followed by NADPH addition and measured after 60 mins by LC-MS/MS analysis
Assay type: ADME, microsome
setup.conditions: read-out: CLH
Here, each record is paired with measured microsomal CLint at 0.625 µM data.
reported.metric: microsomal CLint at 0.625 µM

>>> print(df.to_string())
                                   compound  measured_result
0  COc1ccc([C@H](C)NC(=O)N(C)C2CCN(C3CCc4cc(C)ccc43)CC2)c(Cl)c1Cl (some centres undefined)    217 µL/min/mg
1  COc1ccc([C@H](C)NC(=O)N(C)C2CCN(C3CCc4cc(O)ccc43)CC2)c(Cl)c1Cl (some centres undefined)    117 µL/min/mg
2  COc1ccc([C@H](C)NC(=O)N(C)C2CCN(C3CCc4cc(-n5nccn5)ccc43)CC2)c(Cl)c1Cl (some centres undefined)    244 µL/min/mg
3  C#Cc1ccc([C@H](C)NC(=O)N(C)C2CCN(C3CCc4cc(-c5cc(C)ncn5)ccc43)CC2)c(Cl)c1Cl (some centres undefined)    157 µL/min/mg
4  COc1ccc([C@H](C)NC(=O)N(C)C2CCN(C3CCc4cc(-c5cc(C)ncn5)ccc43)CC2)c(Cl)c1Cl (some centres undefined)    122 µL/min/mg
5  Cc1cc(-c2ccc3c(c2)CC[C@H]3N2CCC(N(C)C(=O)N[C@@H](C)c3ccc(C#CC4CC4)c(Cl)c3Cl)CC2)ncn1   < 10 µL/min/mg
6  COc1ccc([C@H](C)NC(=O)N(C)C2CCN(C3CCc4cc(Cl)ccc43)CC2)c(Cl)c1Cl (some centres undefined)    388 µL/min/mg
7  Cc1cc(-c2ccc3c(c2)CCC3N2CCC(N(C)C(=O)N[C@@H](C)c3ccc(C#CC4CC4)c(Cl)c3Cl)CC2)ncn1 (some centres undefined)   42.6 µL/min/mg
8  COc1ccc([C@H](C)NC(=O)N(C)C2CCN(C3CCc4cc(N)ccc43)CC2)c(Cl)c1Cl (some centres undefined)   70.4 µL/min/mg

----------
procedure.summary: Protein binding in dog plasma at 1 uM after 6 hrs by equilibrium dialysis
Format: ADME, cell-free, Canis lupus familiaris
setup.conditions: read-out: PPB
reported.metric: fraction unbound at 6 h, 1 µM

>>> print(df.to_string())
                           smiles_structure  measured_result
0  Cc1cc(-c2ccc3c(c2)CC[C@H]3N2CCC(N(C)C(=O)N[C@@H](C)c3ccc(C#CC4CC4)c(Cl)c3Cl)CC2)ncn1           0.0001

----------
procedure.summary: Half life in rat at 3 mg/kg, po via gavage by LC-MS/MS analysis
Format: ADME, organism-based
setup.conditions: in vivo
reported.metric: half-life

                           smiles_structure  measured_result
0  Cc1cc(-c2ccc3c(c2)CC[C@H]3N2CCC(N(C)C(=O)N[C@@H](C)c3ccc(C#CC4CC4)c(Cl)c3Cl)CC2)ncn1           15.8 h

----------
target.under.test: Growth hormone secretagogue receptor type 1 (Homo sapiens)
procedure.summary: Inverse agonist at recombinant human GHSR1a expressed in HEK293 cells assessed as decrease in IP1 accumulation after 1 hr by IP1-d2-based HTRF assay
Type: functional, cell-based
setup.conditions: read-out: EC50
pEC50: −log10 of the molar value.
Is pEC50 at least 7? Then True. If not, False.

>>> print(df.to_string())
                                   compound                         target_under_test  class_name
0  C[C@H](NC(=O)N(C)C1CCN(C2CCc3cc(-c4ncccn4)ccc32)CC1)c1ccc(C#CC2CC2)c(Cl)c1Cl (stereo partly drawn)  Growth hormone secretagogue receptor type 1 (Homo sapiens)       False
1  Cc1cc(-c2ccc3c(c2)CC[C@H]3N2CC3(CCN(C(=O)N[C@@H](C)c4ccc(-c5cnccn5)c(Cl)c4Cl)CC3)C2)ncn1  Growth hormone secretagogue receptor type 1 (Homo sapiens)       False
2  C#Cc1ccc([C@H](C)NC(=O)N(C)C2CCN(C3CCc4cc(-c5cc(C)ncn5)ccc43)CC2)c(Cl)c1Cl (stereo partly drawn)  Growth hormone secretagogue receptor type 1 (Homo sapiens)        True
3  Cc1cc(-c2ccc3c(c2)CC[C@@H]3N2CCC(N(C)C(=O)N[C@@H](C)c3ccc(C#CC4CC4)c(Cl)c3Cl)CC2)ncn1  Growth hormone secretagogue receptor type 1 (Homo sapiens)       False
4  Cc1cc(-c2ccc3c(c2)CCC3N2CCC(N(C)C(=O)N[C@@H](C)c3ccc(-c4cnccn4)c(Cl)c3Cl)CC2)ncn1 (stereo partly drawn)  Growth hormone secretagogue receptor type 1 (Homo sapiens)       False
